measuredTarget: Corticotropin-releasing factor receptor 2/Corticotropin-releasing factor-binding protein (Homo sapiens, UniProt P24387+Q13324)
Sequence (Q13324 whole entry): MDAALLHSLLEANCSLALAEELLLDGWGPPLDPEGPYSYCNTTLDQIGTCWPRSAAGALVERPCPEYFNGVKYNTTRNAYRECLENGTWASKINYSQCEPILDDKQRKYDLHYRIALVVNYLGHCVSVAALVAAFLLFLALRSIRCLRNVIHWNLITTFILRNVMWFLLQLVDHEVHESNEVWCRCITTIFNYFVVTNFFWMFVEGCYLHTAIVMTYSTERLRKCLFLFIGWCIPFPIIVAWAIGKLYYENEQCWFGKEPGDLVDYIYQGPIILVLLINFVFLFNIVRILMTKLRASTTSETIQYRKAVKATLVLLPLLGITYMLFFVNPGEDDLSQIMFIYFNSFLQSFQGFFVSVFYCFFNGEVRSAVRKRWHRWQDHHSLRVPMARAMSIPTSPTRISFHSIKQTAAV
Sequence (P24387 whole entry): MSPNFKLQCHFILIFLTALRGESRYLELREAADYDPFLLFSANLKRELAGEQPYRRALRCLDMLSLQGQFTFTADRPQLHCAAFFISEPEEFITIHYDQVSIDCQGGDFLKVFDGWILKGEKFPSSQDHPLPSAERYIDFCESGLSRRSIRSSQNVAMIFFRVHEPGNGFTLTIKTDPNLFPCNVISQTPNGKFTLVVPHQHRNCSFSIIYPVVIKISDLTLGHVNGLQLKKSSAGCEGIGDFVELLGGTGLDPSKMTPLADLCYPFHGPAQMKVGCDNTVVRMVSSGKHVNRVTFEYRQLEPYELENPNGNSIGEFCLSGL
assayMethodText: activators of CRF receptor 2 with binding protein – uHTS hits, confirmation (AID 602473)
Assay type: functional
conditionLabel: read-out: EC50_Mean
Active and inactive are the calls of the source. Cut-off read from the data, not from the text of the source: actives have a measured EC50 and inactives only a lower limit.
# valid calls are active, inactive; nothing else

1. Cc1nnc(NC(=O)C2CCCN(c3ncccn3)C2)s1 (stereo not given) ... inactive
2. Cc1cc(O)c(C2(O)C(=O)Nc3cc(Br)ccc32)cc1C (stereo not given) ... inactive
3. Cc1ccc(S(=O)(=O)C(C#N)c2nc3ccccc3nc2N2CCCC2)cc1 (stereo not given) ... inactive
4. Cc1nc2ccccc2n1CCOc1ccc([N+](=O)[O-])cc1 ... inactive
5. COc1ccc(-n2ncc(C(C)NS(=O)(=O)c3cc(C)sc3C)c2C)cc1 (stereo not given) ... inactive
6. Cc1ccc(N2C(=O)c3sc4nnc(C)c(=O)n4c3C2=O)cc1 ... inactive
7. O=C(Cc1ccc(Cl)cc1)NC(=S)Nc1ccccc1O ... active
8. Cc1c2cnn(CC(=O)NC3CCCC3)c(=O)c2c(C)n1Cc1ccccc1 ... inactive
9. O=C(c1ccc2c(c1)OCO2)C1CCCN(Cc2cc(F)ccc2-n2cccn2)C1 (stereo not given) ... inactive
10. Cc1ccc(C)c(S(=O)(=O)C(C#N)c2nc3ccccc3nc2N2CCOCC2)c1 (stereo not given) ... active

Which outcome was entered for the compound Cn1c(C(=O)NCCc2ccccc2)cc(=O)n(C)c1=O in this test?
inactive

Lookup CCOc1cc(/C=C2\C(=N)N3N=C(CC(=O)N4CCCCC4)SC3=NC2=O)ccc1O
active

Lookup Cc1cccc(C)c1OCC(=O)Nc1oc(-c2ccccc2)c(-c2ccccc2)c1C#N
inactive

Lookup COc1ccccc1CN(C)C(=O)C(c1ccccc1)c1ccccc1
inactive

Lookup COc1ccc(NC(=O)Nc2ccc3c(c2)OCO3)c(C)c1
inactive

Where do the numbers come from? From ChEMBL document CHEMBL1201862.
